Reference source: the nanobody polyreactivity screen of Harvey et al. (2022)

ASSAY_COMMENT: yeast display, Sf9 membrane polyspecificity reagent, FACS + sequencing; frameworks hold sequencing errors
ASSAY_READOUT: polyreactivity (PSR sort gate)

Solved cases below.
SEQUENCE_CONTENT: QVQLVESGGGLVQAGGSLRLSCAASGIFEWNAMGWYRQAPRTERELVAAISNSGGSTYYADSVKGRFTISRDNAKNTVYLQMNSLKPEDNAVYYCAARSKTPAWWYWNSYYIRDYWGQATQVTVSS
REPORTED_MEASUREMENT: high polyreactivity
--
SEQUENCE_CONTENT: QVQLVESGGGLVQAGGSLRLSCAASGSIFFPNAMGWYRQAPGKERELVAAIRGGTNTYYADSVKGRFTISRDNAKTTVYLQLNSLKPEDTAVYYCAARRSSHWFTYDYWGQGTQVTVSS
REPORTED_MEASUREMENT: high polyreactivity
--
SEQUENCE_CONTENT: QVQLVESGGGLVQAGGSLRLSCDASAYIFVYNVMGWYRQAHGKERELVAAITSGGSTNYADSVKGRFTISRDNAKNTVYLQMNSLKPEDTAVYYCNAQFDLTFRGTGDYWGQGTQVTVSS
REPORTED_MEASUREMENT: low polyreactivity
--
SEQUENCE_CONTENT: QVQLVESGGGLVKAGGSLRLSCAASGLIFRRNAMGWYRQAPGKERELVATINFRDTTRYADSVKGRFTISRDNAKNTVYFQMNSLKPEDTAVYYCATEWPERDWWVHKMDYWGQGTQVTVSS
REPORTED_MEASUREMENT: low polyreactivity
--
SEQUENCE_CONTENT: QVQLVESGGGLVQAGASLRLSCAASGGIFVVYGMGWYRQAPGNERELVAAISWRGGSTYYADSVKGRFTISRDNAKNTVYLQMNSLKPEDTAVYYCAADQYYGGYDYWGQGTQVTVSS
REPORTED_MEASUREMENT: low polyreactivity

Would you mind listing polyreactivity (PSR sort gate) for each of the following sequences?
1. QVQLVESGGGLVQAGGSLRLSCAASGRIFFPYAMGWYRQAPGKERELVAAINYSGGSTYYADSVKGRFTISRDNAKYTVYLQMNSLKPEDTAVYYCAKEYGKAYDYWGQGTLVTVSS
2. QVQLVESGGGLVQAGGSLRLSCAASGRTIDSNAMGWYRQAPGKERELVAAISSDGGSTYYADSVKGRFTISRDNAKNTVYLQMNSLKPEDTAVYYCNAYYGRFPYYADDYWGQGTQVTVSS
3. QVQLVESGGGLVQAGGSLRLSCAPSGFTFGSNAMGWYRQAPGKERELVAAITWRGGSTYYADSVKGRFTISRDNAKNTVYLQMNSLKPEDTAVYYCAAVRSASSWQYIWLKYYYWGQGTQVTVSS
4. QVQLVESGGGLVQAGGSLRLSCAASGITFFTNVMGWYRPAPGKERELVAAISRSGTSTYYADSVKGRFTISRDNAKNTVYLQMNSLKPEDTAVYYCNADQIRGDGDYWGQGTQVTVSS
5. QVQLVESGGGLVQAGGSLRLSCAASGSTFVYYAMGWYRQAPGKERELVAAISRSGGNTYYADSVKGRFTISRDNAKNTVYLQMNSLKPEDTAVYYCAARSYGVQYYYWGQGTQVTVSS
6. QVQLVESGGGLVQAGGSLRLSCAASGSTRYNAMGWYRQAPGKERELVASIRGNAGSTYYADSVKGRFTISRDNAKNTVYLQMNSLKPEDTAVYYCNARYWYRYGGYKPVGGYYWGQGTQVTVSS

1. high polyreactivity
2. low polyreactivity
3. high polyreactivity
4. high polyreactivity
5. high polyreactivity
6. high polyreactivity
